Hey, just so you know, these numbers are from patent US9365522B2.

tgt: ligand binding domain of human ROR gamma (Homo sapiens)
Construct: NM_001001523; expressed in transfected cells; host or cells: HEK293T
Sequence (P51449 247-497 isoform P51449-2): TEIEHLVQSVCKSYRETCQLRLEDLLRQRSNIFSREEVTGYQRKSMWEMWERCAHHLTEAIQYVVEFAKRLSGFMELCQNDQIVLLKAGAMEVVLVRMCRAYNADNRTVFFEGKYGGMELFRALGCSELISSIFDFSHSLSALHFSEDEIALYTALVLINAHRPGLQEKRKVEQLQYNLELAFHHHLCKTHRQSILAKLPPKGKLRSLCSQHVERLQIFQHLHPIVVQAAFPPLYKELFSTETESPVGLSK
assayMethodText: ROR gamma reporter gene assay (GAL4-RORγ LBD luciferase, Dual-Glo)
Format: cell-based
experimentalConditions: HEK293T cells transfected with pM-ROR gamma, 8 concentrations 3.5 nM to 10.5 μM, 24 h incubation; read-out: result (pIC50, inhibition of RORγ transcriptional activity) (converted)
# thresholds on IC50 define classes: bottom end: < 10000 pM; midrange: ≥ 10000 pM and < 60000 pM; top end: ≥ 60000 pM

molecule: CC(C)CC(C)N(CC(=O)c1c(Cl)cncc1Cl)C(=O)c1cnn([C@H]2CC[C@](C)(C(=O)O)CC2)c1C(F)(F)F (some centres unmarked) [Example 312]
category: midrange

Prompt: Into which category would you place O=C(CN(Cc1cc(F)cc(F)c1)C(=O)c1cnn([C@H]2CC[C@H](C(=O)O)CC2)c1C(F)(F)F)c1cc(F)cc(F)c1 [Example 60] ?
Completion: top end

Prompt: Hi, small favor: classify O=C(CN(Cc1ccco1)C(=O)c1cnn([C@H]2CC[C@H](C(=O)O)CC2)c1C(F)(F)F)c1c(Cl)cncc1Cl [Example 46] by its IC50 when you get a moment.
Completion: top end

Prompt: Which of the defined bands does the recorded IC50 of CC12CCC(CN(CC(=O)c3c(Cl)cncc3Cl)C(=O)c3cnn([C@H]4CC[C@H](C(=O)O)CC4)c3C(F)(F)F)(CC1)C2 [Example 192] sit within?
Completion: midrange

Prompt: Which IC50 category applies to C[S+](=O)([O-])[C@H]1CC[C@@H](n2ncc(C(=O)N(CC(=O)c3c(Cl)cncc3Cl)Cc3ccc(F)cc3)c2C(F)(F)F)CC1 [Example 86] here?
Completion: top end

Prompt: Would you mind sorting Cc1cc(C)c(C(=O)CN(C(=O)c2cnn([C@H]3CC[C@](C)(C(=O)O)CC3)c2C(F)(F)F)C2CCC(C)(C)CC2)c(Cl)c1 [Example 279] into the appropriate category?
Completion: midrange

Prompt: Dear colleague, I would appreciate it if you could identify the bin for CC1(C)CC(CN(CC(=O)c2c(Cl)cncc2Cl)C(=O)c2cnn([C@H]3CC[C@](C)(C(=O)O)CC3)c2Cl)C1 [Example 381] and reply at your convenience.
Completion: top end

Prompt: Would you mind sorting CC12CCC(CN(CC(=O)c3c(Cl)cc(Cl)cc3Cl)C(=O)c3cnn([C@H]4CC[C@](C)(C(=O)O)CC4)c3C(F)(F)F)(CC1)O2 [Example 260] into the appropriate category?
Completion: bottom end

Prompt: # bin lookup: classify CN1CCC(CN(CC(=O)c2c(Cl)cncc2Cl)C(=O)c2cnn([C@H]3CC[C@H](C(=O)O)CC3)c2C(F)(F)F)CC1 [Example 154] by its IC50
Completion: top end

Prompt: Consider CCC(C)(C)CN(CC(=O)c1c(Cl)cc(Cl)cc1Cl)C(=O)c1cnn([C@H]2CC[C@](C)(C(=O)O)CC2)c1C(F)(F)F [Example 306] . To which IC50 class does it belong?
Completion: bottom end

Prompt: Hi, small favor: classify CCC(C)(C)CN(CC(=O)c1c(Cl)cc(Cl)cc1Cl)C(=O)c1cnn(C23CCC(C(=O)O)(CC2)CC3)c1C(F)(F)F [Example 308] by its IC50 when you get a moment.
Completion: midrange

Prompt: Into which category would you place C[C@]1(C(=O)O)CC[C@H](n2ncc(C(=O)N(CC(=O)c3c(Cl)cc(F)cc3Cl)Cc3cc(F)cc(F)c3)c2C(F)(F)F)CC1 [Example 2] ?
Completion: bottom end

Prompt: Category of CC1(C)[C@@H]2C[C@H](N(CCn3cnc4cccc(Cl)c43)C(=O)c3cnn([C@H]4CC[C@](C)(C(=O)O)CC4)c3C(F)(F)F)C[C@@H]21 [Example 405] , please.
Completion: top end

Prompt: Tag the class for CC1(C)[C@@H]2C[C@H](N(CC(=O)c3c(Cl)cccc3Cl)C(=O)c3cnn([C@H]4CC[C@](C)(C(=O)O)CC4)c3C3(F)CC3)C[C@@H]21 [Example 404]
Completion: midrange

Prompt: Please report the category associated with CC(C)(C)CN(CC(=O)c1c(Cl)cccc1C(F)(F)F)C(=O)c1cnn([C@H]2CC[C@](C)(C(=O)O)CC2)c1C(F)(F)F [Example 265] , nothing else.
Completion: midrange

Prompt: For the record O=C(CN(Cc1cc(F)cc(F)c1)C(=O)c1cnn([C@H]2CC[C@H](C(=O)O)CC2)c1C(F)(F)F)c1c(Cl)cc(F)cc1Cl [Example 55] , report the class its IC50 corresponds to.
Completion: bottom end

Prompt: // bin(item) where item = Cc1csc(C)c1C(=O)CN(Cc1cc(F)cc(F)c1)C(=O)c1cnn([C@H]2CC[C@H](C(=O)O)CC2)c1C(F)(F)F [Example 3]
Completion: top end

Prompt: Lab note: which band did O=C(CN(Cc1ccc(F)cc1)C(=O)c1cnn([C@H]2CC[C@H](C(=O)O)CC2)c1C(F)(F)F)c1c(Cl)cc[nH]c1=O [Example 195] land in?
Completion: top end

Prompt: Which category does the recorded IC50 put CC(C)[C@@H]1C[C@@H]1N(CC(=O)c1c(Cl)cncc1Cl)C(=O)c1cnn([C@H]2CC[C@](C)(C(=O)O)CC2)c1C(F)(F)F [Example 340] in?
Completion: top end

Prompt: For this molecule, which bin applies? CC1(C)[C@@H]2C[C@H](N(CC(=O)c3c(Cl)cc(F)cc3Cl)C(=O)c3cnn(C45CCC(C(=O)O)(CC4)CC5)c3C(F)(F)F)C[C@@H]21 [Example 240]
Completion: bottom end

Prompt: State the class of the molecule shown: O=C(CN(C(=O)c1cnn([C@H]2CC[C@H](C(=O)O)CC2)c1C(F)(F)F)C1CCC(F)(F)CC1)c1c(Cl)cncc1Cl [Example 175]
Completion: top end
